Entries and their %Inh values follow.
- Test system: SBK1;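 further: KINOMEscan kinase panel screen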
- Experimental Conditions: concentration: 1 μM, replicates: in singlicate; n = 1
Value Type: %Inh (%)

>  <Compound>
COc1cc(OC)cc(-c2cc3cnc(N)nc3nc2NC(=O)NC(C)(C)C)c1

>  <Display Unit>
%

>  <Numeric Value>
0

$$$$
>  <Compound>
CCC(=O)c1c(-c2ccccc2)c2cc(Cl)ccc2c(=O)n1Cc1cc(S(C)(=O)=O)n(CC(N)=O)n1

>  <Display Unit>
%

>  <Numeric Value>
0

$$$$
>  <Compound>
Cl.NS(=O)(=O)c1cccc(Nc2cc(-c3ccc(F)cc3)n[nH]2)c1

>  <Display Unit>
%

>  <Numeric Value>
0

$$$$
>  <Compound>
COc1cc(Nc2nccc(N3CCC(NC(=O)C4COc5ccccc5O4)C3)n2)cc(OC)c1OC (stereo not shown)

>  <Display Unit>
%

>  <Numeric Value>
20

$$$$
>  <Compound>
CCCNC(=O)Nc1ccc(Oc2ncnc3ccn(C)c23)cc1

>  <Display Unit>
%

>  <Numeric Value>
20

$$$$
>  <Compound>
Nc1nccc2scc(-c3ccc4c(c3)CCN4C(=O)Cc3ccccc3)c12

>  <Display Unit>
%

>  <Numeric Value>
2

$$$$
>  <Compound>
CCC(=O)c1c(-c2ccccc2)c2cc(Cl)ccc2c(=O)n1Cc1cc(C(=O)NC2CC2)n(C)n1

>  <Display Unit>
%

>  <Numeric Value>
0

$$$$
>  <Compound>
O=C1NC(=O)C(c2ccccc2)=C1Nc1cccc(O)c1

>  <Display Unit>
%

>  <Numeric Value>
27

$$$$
>  <Compound>
Nc1ncnc2c1ncn2-c1cccc(F)c1

>  <Display Unit>
%

>  <Numeric Value>
25

$$$$
>  <Compound>
COc1ccc(-c2cc3c(C)nc(N)nc3n([C@H]3CC[C@H](O)CC3)c2=O)cn1

>  <Display Unit>
%

>  <Numeric Value>
0

$$$$
>  <Compound>
Nc1n[nH]c2ncc(-c3ccccc3)cc12

>  <Display Unit>
%

>  <Numeric Value>
8

$$$$
>  <Compound>
COc1ccc(-c2coc3ccc(-c4nnc(SCc5cccc(C#N)c5)o4)cc23)cc1

>  <Display Unit>
%

>  <Numeric Value>
0

$$$$
>  <Compound>
Cn1c(=O)c(F)c(Nc2ccc(I)cc2F)c2c(=O)n(OC[C@H](O)CO)cnc21

>  <Display Unit>
%

>  <Numeric Value>
0

$$$$
>  <Compound>
COc1ccc(Nc2nccc(N3CCC(NS(=O)(=O)c4ccc(NC(C)=O)cc4)C3)n2)cc1 (stereo not shown)

>  <Display Unit>
%

>  <Numeric Value>
4

$$$$
>  <Compound>
Cc1nn2c(=O)cc(N3CCOCC3)nc2n1Cc1cccc(Cl)c1Cl

>  <Display Unit>
%

>  <Numeric Value>
14

$$$$
>  <Compound>
Fc1cccc(CSc2nnc(-c3ccc4c(c3)CCO4)o2)c1

>  <Display Unit>
%

>  <Numeric Value>
0

$$$$
>  <Compound>
O=C(NCc1cccs1)c1cc(C(=O)c2c(Cl)cccc2Cl)c[nH]1

>  <Display Unit>
%

>  <Numeric Value>
0

$$$$
>  <Compound>
COc1cc2nccc(Nc3ccc(OCc4ccc(NC(C)=O)cc4)cc3)c2cc1OC.Cl

>  <Display Unit>
%

>  <Numeric Value>
5

$$$$
>  <Compound>
CN1C(=O)C(Nc2ccccc2)=C(c2ccccc2)C1=O

>  <Display Unit>
%

>  <Numeric Value>
0

$$$$

Attribution: paper PMC5540273
